Where a name gives a salt, the structure may show the parent alone.

COMPOUND: COc1cc2c(Oc3ccc(NS(=O)(=O)c4ccn(C)n4)cc3F)ccnc2cc1OCCCN1CCCC(C)C1 (stereo not shown)
melting point: 164 to 166 °C
--
COMPOUND: COc1cc2c(Oc3cccc(NS(=O)(=O)c4ccco4)c3)ccnc2cc1OCCCN1CCN(C)CC1
melting point: 176 to 177 °C
--
COMPOUND: COc1cc2c(Oc3ccc(NS(=O)(=O)c4cc(F)ccc4F)cc3F)ccnc2cc1OCCCN (as salt: hydrochloride)
melting point: 188 to 190 °C
--
COMPOUND: COc1cc2c(Oc3cccc(NS(=O)(=O)c4c(C)noc4C)c3)ccnc2cc1OCCCN1CCN(C)CC1
melting point: 200 to 202 °C
--
COMPOUND: COc1cc2c(Oc3ccc(NS(=O)(=O)c4ccccc4OC)cc3F)ccnc2cc1OCCCN1CCN(C)CC1
melting point: 168 to 170 °C
--
COMPOUND: COc1cc2c(Oc3cc(NS(=O)(=O)c4ccccc4OC(F)(F)F)ccc3F)ccnc2cc1OCCCN1CCC(C)CC1
melting point: 80 to 82 °C
--
COMPOUND: COc1cc2c(Oc3ccc(NS(=O)(=O)c4cc(Cl)ccc4Cl)cc3C)ccnc2cc1OCCCN1CCC(C)CC1
melting point: 187 to 188 °C
